This collection of values is drawn from patent US20250270221A1.

# method.description: Aqueous solubility of crystalline ruxolitinib di-hydrate
# Type: physicochemical
# conditions: 20 °C, thermodynamic from solid; FeSSIF (pH 5.0), 20-25° C.
property: solubility (µg/mL)
Enter your answer as a number in µg/mL; do not include the unit.

Query: Fill blank: measured solubility of the compound N#CC[C@H](C1CCCC1)n1cc(-c2ncnc3[nH]ccc23)cn1 [Ruxolitinib Di-hydrate] is ____.
Reply: 419

----------
# method.description: Aqueous solubility of crystalline ruxolitinib di-hydrate
# Assay type: physicochemical
# conditions: borate buffer, 20 °C, aqueous buffer, thermodynamic from solid; pH 8.5 (Borate), 20-25° C.
property: solubility (µg/mL)
Enter your answer as a number in µg/mL; do not include the unit.

Query: Fill blank: measured solubility of the compound N#CC[C@H](C1CCCC1)n1cc(-c2ncnc3[nH]ccc23)cn1 [Ruxolitinib Di-hydrate] is ____.
Reply: 112
